- Tested on: HBV in 2.2.15 cells
- EXPERIMENT: 2.2.15 cells: viral product in cell lysates quantified via quantitative real time PCR
- Type: cell-based, hepatitis B virus (HBV)
- SETTINGS: Hepatitis B virus, 120 h, day 5 post treatment, 50% reduction of viral product vs no drug controls, readout (qPCR, HBsAg or HBeAg) not specified for the column
pEC50: −log10 of the molar value.
ASSAY_METRIC: pEC50

Check out these entries, answers already filled in.
[
  {
    "STRUCTURE_STRING": "CC(C)(C)[C@@H]1Cn2nc(-c3cccc4ccoc34)cc2-c2cc(=O)c(C(=O)O)cn21",
    "pEC50": "> 7.00"
  },
  {
    "STRUCTURE_STRING": "CC(C)(C)[C@@H]1Cn2nc(-c3ccncc3F)cc2-c2cc(=O)c(C(=O)O)cn21",
    "pEC50": "> 7.00"
  },
  {
    "STRUCTURE_STRING": "CC(C)[C@@H]1Cn2nc(C3CC3)c(-c3ccco3)c2-c2cc(=O)c(C(=O)O)cn21",
    "pEC50": "> 7.00"
  },
  {
    "STRUCTURE_STRING": "CC(C)[C@@H]1Cn2nc(-c3ccc(OC4CC4)cc3)c(-c3ccc(OC4CC4)cc3)c2-c2cc(=O)c(C(=O)O)cn21",
    "pEC50": "6.00 to 6.70"
  },
  {
    "STRUCTURE_STRING": "COCCOc1ccccc1-c1cc2n(n1)C[C@@H](C(C)(C)C)n1cc(C(=O)O)c(=O)cc1-2",
    "pEC50": "> 7.00"
  }
]

Prompt: Please report the recorded pEC50 for `CC(C)(C)[C@@H]1Cn2ncc(-c3ccoc3)c2-c2cc(=O)c(C(=O)O)cn21` .
Response: > 7.00

Prompt: Another: `Cc1cccc(-c2cnn3c2-c2cc(=O)c(C(=O)O)cn2[C@H](C(C)(C)C)C3)c1`
Response: > 7.00

----------
- EXPERIMENT: Compound induced cellular toxicity in HepG2 cells, ATPlite 1Step
- Type: cell-based
- SETTINGS: human, three days exposure, 50% reduction of total ATP vs no drug controls
ASSAY_METRIC: CC50 at 3 days

[
  {
    "STRUCTURE_STRING": "CC(C)(C)[C@@H]1Cn2nc(-c3cccc4c3OCC4)cc2-c2cc(=O)c(C(=O)O)cn21",
    "CC50 at 3 days": "> 25 µM"
  },
  {
    "STRUCTURE_STRING": "CC(C)(C)[C@@H]1Cn2nc(C3CC3)c(-c3cc(F)ccc3F)c2-c2cc(=O)c(C(=O)O)cn21",
    "CC50 at 3 days": "> 25 µM"
  },
  {
    "STRUCTURE_STRING": "CC(C)(C)[C@@H]1Cn2nc(-c3ccccc3OC3CC3)cc2-c2cc(=O)c(C(=O)O)cn21",
    "CC50 at 3 days": "> 25 µM"
  }
]

Below: the item to evaluate.
Prompt: Please report the recorded CC50 at 3 days for `CCCCOc1ccccc1-c1cc2n(n1)C[C@@H](C(C)(C)C)n1cc(C(=O)O)c(=O)cc1-2` .
Response: > 25 µM
